B1: library; numbered along this chain (parent)
chain: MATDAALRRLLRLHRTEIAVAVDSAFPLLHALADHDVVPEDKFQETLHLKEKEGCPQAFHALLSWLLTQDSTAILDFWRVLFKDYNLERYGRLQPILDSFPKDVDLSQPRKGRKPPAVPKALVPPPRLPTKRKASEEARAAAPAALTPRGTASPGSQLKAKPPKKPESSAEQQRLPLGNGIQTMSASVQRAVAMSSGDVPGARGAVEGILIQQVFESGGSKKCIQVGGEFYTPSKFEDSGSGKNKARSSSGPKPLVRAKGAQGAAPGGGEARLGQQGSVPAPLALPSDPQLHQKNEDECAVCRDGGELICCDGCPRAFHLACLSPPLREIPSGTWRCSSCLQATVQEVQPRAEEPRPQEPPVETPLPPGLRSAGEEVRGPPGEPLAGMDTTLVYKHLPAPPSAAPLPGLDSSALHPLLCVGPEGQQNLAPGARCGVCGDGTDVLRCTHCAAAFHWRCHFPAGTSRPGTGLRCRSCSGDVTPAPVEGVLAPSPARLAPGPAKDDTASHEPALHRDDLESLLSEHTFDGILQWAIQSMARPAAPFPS

variants of: B1; assay: AIRE transcriptional activation functional score (insulin promoter-GFP; nonsense median 0, synonymous median 1) (normalised score); higher = higher AIRE activity (more reporter activation); details: with insulin promoter-GFP reporter in HEK293
metric.name: AIRE transcriptional activation functional score

For orientation, consider the following solved cases.
- mutation.spec: "L28K"
  result: 0.863
- mutation.spec: "L470F"
  result: 0.971
- mutation.spec: "G268Q"
  result: 0.515
- mutation.spec: "H60S"
  result: -0.00297
- mutation.spec: "L417C"
  result: 1.24
- mutation.spec: "A205Y"
  result: 0.153
- mutation.spec: "L285H"
  result: 0.689
- mutation.spec: "F543Y"
  result: 0.833
- mutation.spec: "C314N"
  result: 1.03
- mutation.spec: "P380V"
  result: 0.912

Consider E40S . Its measured AIRE transcriptional activation functional score is 0.167

What the record says about D304I : AIRE transcriptional activation functional score is 0.384

Record summary for P460I : reported AIRE transcriptional activation functional score = 1.01

In plain terms, S506F has a documented AIRE transcriptional activation functional score of 0.873

// C299Q : AIRE transcriptional activation functional score value = 0.508

Please fill in: AIRE transcriptional activation functional score reported for A489S = 0.687
